Test: Cytotoxicity against human HepG2 cells assessed as reduction in cell viability after 48 hrs by MTT assay
Assay type: cell-based
// returns False unless CC50 at 48 h is strictly below 100 µM, in which case True

stdin: Does the reported CC50 at 48 h of the following compound sit strictly below 100 µM? COc1cc(NC(C)CCCNC(=O)c2c(C)[n+]([O-])c3ccc(OC)cc3[n+]2[O-])c2ncccc2c1 (centres undefined)
stdout: False

stdin: Say whether its CC50 at 48 h is strictly beneath 100 µM. Entry: COc1cc(NC(C)CCCNC(=O)c2c(C)[n+]([O-])c3cc(C)c(C)cc3[n+]2[O-])c2ncccc2c1 (centres undefined)
stdout: False

stdin: In the record for CCN(CC)CCCC(C)Nc1ccnc2cc(Cl)ccc12 (centres undefined) [CHLOROQUINE] , is CC50 at 48 h less than 100 µM?
stdout: False

stdin: Would you kindly verify if CC50 at 48 h of COc1cc(NC(C)CCCN)c2ncccc2c1 (centres undefined) [PRIMAQUINE] is strictly less than 100 µM?
stdout: False

stdin: Would you kindly verify if CC50 at 48 h of COc1cc(NC(C)CCCNC(=O)c2c(C)[n+]([O-])c3ccccc3[n+]2[O-])c2ncccc2c1 (centres undefined) is strictly less than 100 µM?
stdout: True

stdin: Does the reported CC50 at 48 h of the following compound sit strictly below 100 µM? COc1ccc2c(c1)[n+]([O-])c(C(=O)NCCNc1ccnc3cc(Cl)ccc13)c(C)[n+]2[O-]
stdout: True

stdin: Hi there! Is CC50 at 48 h for Cc1ccc2c(c1)[n+]([O-])c(C(=O)NCCNc1ccnc3cc(Cl)ccc13)c(C)[n+]2[O-] below 100 µM, do you know?
stdout: True

stdin: Input COc1cc(NC(C)CCCNC(=O)c2c(C)[n+]([O-])c3ccc(Cl)cc3[n+]2[O-])c2ncccc2c1 (centres undefined) ; condition: CC50 at 48 h strictly below 100 µM. Does it hold?
stdout: False

stdin: For this compound, is CC50 at 48 h lower than 100 µM? Cc1c(C(=O)NCCNc2ccnc3cc(Cl)ccc23)[n+]([O-])c2cc(Cl)ccc2[n+]1[O-]
stdout: True

Data provenance is ChEMBL document CHEMBL4270646.
